- Target system: T1, IL1RAP on HEK-Blue IL1β / HEK-Blue IL33 reporter cells (UniProt Q9NPH3 21-570, limits assumed)
- T1 sequence (looked up): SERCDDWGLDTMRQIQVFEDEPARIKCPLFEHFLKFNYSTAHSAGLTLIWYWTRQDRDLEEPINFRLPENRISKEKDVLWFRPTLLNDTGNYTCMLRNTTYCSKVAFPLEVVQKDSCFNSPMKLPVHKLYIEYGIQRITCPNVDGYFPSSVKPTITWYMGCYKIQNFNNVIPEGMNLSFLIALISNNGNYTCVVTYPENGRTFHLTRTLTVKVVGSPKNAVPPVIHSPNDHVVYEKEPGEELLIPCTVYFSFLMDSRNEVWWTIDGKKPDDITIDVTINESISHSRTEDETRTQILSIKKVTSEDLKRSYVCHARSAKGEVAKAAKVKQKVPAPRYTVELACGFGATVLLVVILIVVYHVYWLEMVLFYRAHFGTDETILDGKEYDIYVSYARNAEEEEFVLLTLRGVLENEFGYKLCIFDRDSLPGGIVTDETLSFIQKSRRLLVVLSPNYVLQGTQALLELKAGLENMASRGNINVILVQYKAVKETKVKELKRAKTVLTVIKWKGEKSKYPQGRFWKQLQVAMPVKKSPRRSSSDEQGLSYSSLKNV
- Experiment: cell-based or functional assay
Decision: Max % Inhibition at 200 nM, HEK-BlueIL33 NFκB Reporter Assay beneath 80% gives criterion met; Max % Inhibition at 200 nM, HEK-BlueIL33 NFκB Reporter Assay meeting or exceeding 80% gives criterion not met.

Is the reported Max % Inhibition at 200 nM, HEK-BlueIL33 NFκB Reporter Assay for STLX2027 (antibody, V domains shown, Purified from hybridoma of immunized Alivamab mice; intact IgG; captured on anti-mouse IgG Fc sensors in Octet; lambda light chain; also called 74804_27I24A) VH: EVQLVESGGGLVKPGGSLRLSCAASGFTFITYSMNWVRQAPGKGLEWVSSISSISSYIYYADSVKGRFTISRDNAKNSLYLQMDSLRAEDSAVYYCAREGIVGPTGYFDSWGQGTLVTVSS VL: QSVLTQPPSVSAAPGQKVTISCSGSSSNIGNHYVSWYQQLPGTAPKLLIYDNNKRPSGIPDRFSGSKSGTSATLGITGLQTGDEADYYCGTWDSRLSAYWVFGGGTKLTVL strictly below 80%?
criterion not met

Is the reported Max % Inhibition at 200 nM, HEK-BlueIL33 NFκB Reporter Assay for STLX2018 (antibody, V domains shown, Purified from hybridoma of immunized Alivamab mice; intact IgG; captured on anti-mouse IgG Fc sensors in Octet; kappa light chain; also called 74804_18L05A) VH: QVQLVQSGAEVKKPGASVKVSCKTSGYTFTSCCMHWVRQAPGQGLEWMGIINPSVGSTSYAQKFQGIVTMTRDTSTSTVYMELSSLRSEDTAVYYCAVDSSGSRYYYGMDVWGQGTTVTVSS VL: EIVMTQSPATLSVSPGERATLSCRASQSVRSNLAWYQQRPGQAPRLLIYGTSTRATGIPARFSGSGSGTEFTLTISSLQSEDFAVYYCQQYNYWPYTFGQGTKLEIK strictly below 80%?
criterion not met

Is the reported Max % Inhibition at 200 nM, HEK-BlueIL33 NFκB Reporter Assay for STLX2051 (antibody, V domains shown, Purified from hybridoma of immunized Alivamab mice; intact IgG; captured on anti-mouse IgG Fc sensors in Octet; kappa light chain; also called 74804_51C10A) VH: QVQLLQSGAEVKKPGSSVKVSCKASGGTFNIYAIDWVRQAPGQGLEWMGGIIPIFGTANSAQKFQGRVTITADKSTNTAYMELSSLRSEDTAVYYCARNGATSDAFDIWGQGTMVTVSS VL: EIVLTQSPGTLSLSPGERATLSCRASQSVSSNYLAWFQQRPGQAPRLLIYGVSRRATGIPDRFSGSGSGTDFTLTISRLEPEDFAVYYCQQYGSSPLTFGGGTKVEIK strictly below 80%?
criterion met

Is the reported Max % Inhibition at 200 nM, HEK-BlueIL33 NFκB Reporter Assay for STLX2005 (antibody, V domains shown, Purified from hybridoma of immunized Alivamab mice; intact IgG; captured on anti-mouse IgG Fc sensors in Octet; kappa light chain; also called 74804_05B24A) VH: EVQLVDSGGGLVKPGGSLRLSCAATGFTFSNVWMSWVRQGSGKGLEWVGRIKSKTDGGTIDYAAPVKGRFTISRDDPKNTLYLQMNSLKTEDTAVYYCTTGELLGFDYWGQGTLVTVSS VL: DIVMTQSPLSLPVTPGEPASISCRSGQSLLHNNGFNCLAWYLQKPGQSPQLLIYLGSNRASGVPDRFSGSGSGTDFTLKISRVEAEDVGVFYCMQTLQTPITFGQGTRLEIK strictly below 80%?
criterion not met
